tested on: neutrophil elastase (Homo sapiens (Human))
assay overview: biochemical
outcome measure: EC50 (nM)

INSERT INTO measurements (compound, tested_on, outcome_measure, reading) VALUES
  ('CCS(=O)(=O)c1cc(C#N)ccc1C1C2=C(CCC2=O)N(c2ccnc(C(F)(F)F)c2)C(=O)N1C (single isomer, unassigned)', 'neutrophil elastase (Homo sapiens (Human))', 'EC50', 1),
  ('CNC(=O)N1C(=O)N(c2cc(C(F)(F)F)ccn2)C2=C(C(=O)CC2)C1c1ccc(C#N)cc1S(C)(=O)=O (stereo not drawn)', 'neutrophil elastase (Homo sapiens (Human))', 'EC50', 2),
  ('CCNC(=O)N1C(=O)N(c2cc(C(F)(F)F)ccn2)C2=C(C(=O)CC2)C1c1ccc(C#N)cc1S(C)(=O)=O (stereo not drawn)', 'neutrophil elastase (Homo sapiens (Human))', 'EC50', 1),
  ('CN1C(=O)N(c2cccc(C(F)(F)F)c2)C2=C(C(=O)CC2)[C@H]1c1ccc(C#N)cc1[S+](C)[O-] (single isomer, unassigned) [Example C.1B]', 'neutrophil elastase (Homo sapiens (Human))', 'EC50', 1),
  ('CCS(=O)(=O)c1cc(C#N)ccc1C1NC(=O)N(c2cccc(C(F)F)c2)C2=C1C(=O)CC2 (single isomer, unassigned)', 'neutrophil elastase (Homo sapiens (Human))', 'EC50', 1),
  ('CN1C(=O)N(c2cccc(C(F)(F)F)c2)C2=C(C(=O)CC2)[C@H]1c1ccc(C#N)cc1[S+](C)[O-] (single isomer, unassigned) [Example C.2A]', 'neutrophil elastase (Homo sapiens (Human))', 'EC50', 2);

* * *

tested on: neutrophil elastase (Homo sapiens (Human))
assay overview: biochemical
Format: biochemical
condition label: IC50
outcome measure: IC50 (µM)

INSERT INTO measurements (compound, rel, reading) VALUES
  ('CN1C(=O)N(c2cccc(C(F)(F)F)c2)C2=C(C(=O)CC2)C1c1ccc(C#N)cc1CO (single isomer, unassigned) [Example A.1B]', '=', 2.78),
  ('CCS(=O)(=O)c1cc(C#N)ccc1C1NC(=O)N(c2cccc(C(F)F)c2)C2=C1C(=O)CC2 (single isomer, unassigned) [Example D.5A]', '=', 0.0022),
  ('CN1C(=O)N(c2cccc(C(F)(F)F)c2)C2=C(C(=O)CC2)C1c1ccc(C#N)cc1CO (single isomer, unassigned) [Example A.1A]', '<', 0.001),
  ('CN1C(=O)N(c2cccc(C(F)(F)F)c2)C2=C(C(=O)CC2)[C@H]1c1ccc(C#N)cc1S(=O)(=O)CCO', '<', 0.001),
  ('CCS(=O)(=O)c1cc(C#N)ccc1C1C2=C(CCC2=O)N(c2ccnc(C(F)(F)F)c2)C(=O)N1C (single isomer, unassigned)', '=', 2.81),
  ('CCNC(=O)N1C(=O)N(c2ccnc(C(F)(F)F)c2)C2=C(C(=O)CC2)C1c1ccc(C#N)cc1S(=O)(=O)CC (racemic) [Example D.4.1]', '<', 0.001),
  ('CCS(=O)(=O)c1cc(C#N)ccc1C1NC(=O)N(c2cccc(C(F)F)c2)C2=C1C(=O)CC2 (single isomer, unassigned) [Example D.5B]', '=', 0.892),
  ('CCNC(=O)N1C(=O)N(c2ccnc(C(F)(F)F)c2)C2=C(C(=O)CC2)C1c1ccc(C#N)cc1S(=O)(=O)CC (single isomer, unassigned) [Example D.4.1A]', '<', 0.001);

* * *

A set of compounds tested on cytochrome P450 2C19 (Homo sapiens (Human)), with measured IC50:
outcome measure: IC50

INSERT INTO results (compound, reading) VALUES
  ('CN1C(=O)N(c2cccc(C(F)(F)F)c2)C2=C(C(=O)CC2)C1c1ccc(C#N)cc1CO (single isomer, unassigned)', '> 50 µM'),
  ('CN1C(=O)N(c2cccc(C(F)(F)F)c2)C2=C(C(=O)CC2)[C@H]1c1ccc(C#N)cc1S(=O)(=O)CCO', '> 50 µM'),
  ('CN1C(=O)N(c2cccc(C(F)(F)F)c2)C2=C(C(=O)CC2)[C@H]1c1ccc(C#N)cc1[S+](C)[O-] (single isomer, unassigned)', '> 50 µM');

* * *

tested on: neutrophil elastase (Homo sapiens (Human), UniProt P08246)
Sequence (P08246 whole entry, looked up): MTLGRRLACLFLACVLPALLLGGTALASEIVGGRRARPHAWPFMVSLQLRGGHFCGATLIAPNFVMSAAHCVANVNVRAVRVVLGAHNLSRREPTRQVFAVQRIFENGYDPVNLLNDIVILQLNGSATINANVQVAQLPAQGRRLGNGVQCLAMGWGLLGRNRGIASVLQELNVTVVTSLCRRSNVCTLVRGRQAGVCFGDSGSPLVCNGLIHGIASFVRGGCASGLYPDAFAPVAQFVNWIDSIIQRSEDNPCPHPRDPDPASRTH
assay overview: biochemical
Format: biochemical
condition label: Neutrophil Elastase assay, substrate MeOSuc-Ala-Ala-Pro-Val-AMC; read-out: IC50
pIC50: −log10 of the molar value.
The entries below come with measured pIC50 values attached.
outcome measure: pIC50

INSERT INTO measurements (molecule, tested_on, outcome_measure, rel, reading) VALUES
  ('CN1C(=O)N(c2cncc(C(F)(F)F)c2)C2=C(C(=O)CC2)C1c1ccc(C#N)cc1S(C)(=O)=O (stereo not shown)', 'neutrophil elastase (Homo sapiens (Human), UniProt P08246)', 'pIC50', '=', 8.06),
  ('CS(=O)(=O)c1cc(C#N)ccc1C1C2=C(CCC2=O)N(c2cccc(C(F)(F)F)c2)C(=O)N1CCO (stereo not shown)', 'neutrophil elastase (Homo sapiens (Human), UniProt P08246)', 'pIC50', '>', 9.00),
  ('CN1C(=O)N(c2cncc(Br)c2)C2=C(C(=O)CC2)C1c1ccc(C#N)cc1S(C)(=O)=O (stereo not shown)', 'neutrophil elastase (Homo sapiens (Human), UniProt P08246)', 'pIC50', '=', 7.89),
  ('CCNC(=O)N1C(=O)N(c2cncc(C(F)(F)F)c2)C2=C(C(=O)CC2)C1c1ccc(C#N)cc1S(C)(=O)=O (stereo not shown)', 'neutrophil elastase (Homo sapiens (Human), UniProt P08246)', 'pIC50', '>', 9.00),
  ('CN1C(=O)N(c2cccc(C(F)(F)F)c2)C2=C(C(=O)CC2)C1c1ccc(C#N)cc1[S+](C)[O-] (single isomer, unassigned) [Example C.2B]', 'neutrophil elastase (Homo sapiens (Human), UniProt P08246)', 'pIC50', '=', 7.89),
  ('CCNC(=O)N1C(=O)N(c2cncc(Cl)c2)C2=C(C(=O)CC2)C1c1ccc(C#N)cc1S(C)(=O)=O (stereo not shown)', 'neutrophil elastase (Homo sapiens (Human), UniProt P08246)', 'pIC50', '>', 9.00),
  ('N#Cc1ccc(C2NC(=O)N(c3cccc(C(F)(F)F)c3)C3=C2C(=O)CC3)c(S(=O)(=O)CCCO)c1 (stereo not shown)', 'neutrophil elastase (Homo sapiens (Human), UniProt P08246)', 'pIC50', '=', 8.68);

* * *

tested on: neutrophil elastase (Homo sapiens (Human), UniProt P08246)
assay overview: biochemical
Format: biochemical
condition label: read-out: IC50
outcome measure: IC50

INSERT INTO measurements (molecule, reading) VALUES
  ('CCS(=O)(=O)c1cc(C#N)ccc1C1NC(=O)N(c2cccc(C(F)F)c2)C2=C1C(=O)CC2 (racemic)', '5.5 nM'),
  ('CCS(=O)(=O)c1cc(C#N)ccc1C1C2=C(CCC2=O)N(c2ccnc(C(F)(F)F)c2)C(=O)N1C (racemic) [Example D.3]', '4 nM'),
  ('CNC(=O)N1C(=O)N(c2cncc(Cl)c2)C2=C(C(=O)CC2)C1c1ccc(C#N)cc1S(C)(=O)=O (stereo not shown)', '< 1 nM'),
  ('CC[S+]([O-])c1cc(C#N)ccc1C1NC(=O)N(c2cccc(C(F)(F)F)c2)C2=C1C(=O)CC2 (single isomer, unassigned) [Example C.4.2]', '8.9 nM');

* * *

The entries below come with measured Papp B→A at 10 μM values attached.
assay overview: in vitro
Assay type: in vitro ADME
condition label: human, Caco-2, pH 7.2, Caco-2, basal-to-apical, pH 7.2, 37° C.; read-out: PEBA
outcome measure: Papp B→A at 10 μM (×10⁻⁶ cm/s)

INSERT INTO measurements (compound, outcome_measure, reading) VALUES
  ('CCNC(=O)N1C(=O)N(c2ccnc(C(F)(F)F)c2)C2=C(C(=O)CC2)C1c1ccc(C#N)cc1S(=O)(=O)CC (single isomer, unassigned) [Example D.4.1A]', 'Papp B→A at 10 μM', 61),
  ('CN1C(=O)N(c2cccc(C(F)(F)F)c2)C2=C(C(=O)CC2)C1c1ccc(C#N)cc1S(=O)(=O)CCCO (single isomer, unassigned) [Example B.1.3A]', 'Papp B→A at 10 μM', 130),
  ('CN1C(=O)N(c2cccc(C(F)(F)F)c2)C2=C(C(=O)CC2)C1c1ccc(C#N)cc1CO (single isomer, unassigned) [Example A.1A]', 'Papp B→A at 10 μM', 98),
  ('CCS(=O)(=O)c1cc(C#N)ccc1C1NC(=O)N(c2cccc(C(F)F)c2)C2=C1C(=O)CC2 (single isomer, unassigned) [Example D.5A]', 'Papp B→A at 10 μM', 78),
  ('CCNC(=O)N1C(=O)N(c2cc(C(F)(F)F)ccn2)C2=C(C(=O)CC2)C1c1ccc(C#N)cc1S(C)(=O)=O (stereo not shown) [D.4.5]', 'Papp B→A at 10 μM', 67),
  ('CC[S+]([O-])c1cc(C#N)ccc1C1C2=C(CCC2=O)N(c2cccc(C(F)(F)F)c2)C(=O)N1C (single isomer, unassigned) [Example C.5.1]', 'Papp B→A at 10 μM', 57),
  ('CN1C(=O)N(c2ccnc(C(F)(F)F)c2)C2=C(C(=O)CC2)C1c1ccc(C#N)cc1S(C)(=O)=O (single isomer, unassigned) [Example D.1A]', 'Papp B→A at 10 μM', 81),
  ('CN1C(=O)N(c2cccc(C(F)(F)F)c2)C2=C(C(=O)CC2)[C@H]1c1ccc(C#N)cc1S(=O)(=O)CCO [Example B.1.2B]', 'Papp B→A at 10 μM', 120),
  ('CCS(=O)(=O)c1cc(C#N)ccc1C1C2=C(CCC2=O)N(c2ccnc(C(F)(F)F)c2)C(=O)N1C (single isomer, unassigned) [Example D.3B]', 'Papp B→A at 10 μM', 85),
  ('CC(O)c1cc(C#N)ccc1C1C2=C(CCC2=O)N(c2cccc(C(F)(F)F)c2)C(=O)N1C (stereo not shown) [Example A.3]', 'Papp B→A at 10 μM', 87),
  ('CN1C(=O)N(c2cccc(C(F)(F)F)c2)C2=C(C(=O)CC2)C1c1ccc(C#N)cc1C(C)(C)O (stereo not shown) [Example A.2]', 'Papp B→A at 10 μM', 80),
  ('CNC(=O)N1C(=O)N(c2cc(C(F)(F)F)ccn2)C2=C(C(=O)CC2)C1c1ccc(C#N)cc1S(C)(=O)=O (stereo not shown) [D.4.4]', 'Papp B→A at 10 μM', 60),
  ('CN1C(=O)N(c2cccc(C(F)(F)F)c2)C2=C(C(=O)CC2)[C@H]1c1ccc(C#N)cc1[S+](C)[O-] (single isomer, unassigned) [Example C.1B]', 'Papp B→A at 10 μM', 41);
